Data provenance is paper PMC4072508.

TARGET_SYSTEM: T1, Bfl-1, Q16548
T1 chain: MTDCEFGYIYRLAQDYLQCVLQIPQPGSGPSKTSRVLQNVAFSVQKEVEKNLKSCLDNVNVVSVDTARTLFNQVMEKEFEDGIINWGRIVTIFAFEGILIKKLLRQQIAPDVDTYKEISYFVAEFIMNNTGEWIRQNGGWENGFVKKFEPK
MEASUREMENT_NOTES: peptide SPOT array, c-Myc-tagged receptor at 1 uM or 100 nM, anti-c-Myc-Cy3
VALUE_TYPE: SPOT signal as a fraction of Bim BH3's signal on the same receptor and array
Lab note: write the figure by itself, no unit.

**Query** For the binder KIETTPESRYLAQIGDSVSLTCSTTG [VCAM1] , report SPOT signal as a fraction of Bim BH3's signal on the same receptor and array.
**Result** 0.03

**Query** Give reported SPOT signal as a fraction of Bim BH3's signal on the same receptor and array value for LALMMQLARELKTLLRDLGMAVVVTN [RAD51L3]
**Result** 0.07

**Query** Please report the measured SPOT signal as a fraction of Bim BH3's signal on the same receptor and array for THFLDEEVKLIKKMGDHLTNLHRLGG [FTL]
**Result** 0.04

More entries:
**Query** Respond only with SPOT signal as a fraction of Bim BH3's signal on the same receptor and array recorded for TGSLCEIATTDSFEGDGFLWVKSGSV [CRB1]
**Result** 0.03

**Query** Tell us which SPOT signal as a fraction of Bim BH3's signal on the same receptor and array value is on record for QAGPVSSGLALRKLLDRVQLLNLLVT [CCDC57]
**Result** 0.34

**Query** Give the reported SPOT signal as a fraction of Bim BH3's signal on the same receptor and array for this binder. TRRSMVFARHDREVGDEFRSRHLNST [POFUT2]
**Result** 0.61

**Query** Give the measured SPOT signal as a fraction of Bim BH3's signal on the same receptor and array for KCRHEEVVQVLRNAGEEVTLTVSFLK [SNTG1]
**Result** 0.02

**Query** Return SPOT signal as a fraction of Bim BH3's signal on the same receptor and array (reported value) for this binder: NRKGEKNGKGLRHFSMKVCEKVQRKG [TFDP1]
**Result** 0.52

**Query** Provide measured SPOT signal as a fraction of Bim BH3's signal on the same receptor and array value, entry: CSTNNPSQAKLRRELDESLQVAERLT [CLU]
**Result** 0.02

**Query** Return the recorded SPOT signal as a fraction of Bim BH3's signal on the same receptor and array value; entry: FSKREKLVEILRNIGDERTMVFVETK [DDX4]
**Result** 0.1

**Query** Specify measured SPOT signal as a fraction of Bim BH3's signal on the same receptor and array for LGRTGQVCLFLKRGADQHALDQEQRD [ACAP3] .
**Result** 0.16

**Query** State, in one line, measured SPOT signal as a fraction of Bim BH3's signal on the same receptor and array of ASGNKEMIEALKQYAMDYSNKALEKG [IFIT3]
**Result** 0.04

**Query** Assign SPOT signal as a fraction of Bim BH3's signal on the same receptor and array to the following record: GTAVAYRGAHLRGRLRAVYNTFRAAP [XXXX]
**Result** 1.48

**Query** Please report the measured SPOT signal as a fraction of Bim BH3's signal on the same receptor and array for VHKHSRLAEVLQLGSDILPQYKQEAP [KCNH1]
**Result** 0.09
